biological target: PCSK9 (Homo sapiens, UniProt Q8NBP7); construct: purchased; assay: PCSK9 Alexa FRET Standard TR-FRET assay; assay type: binding
Sequence (Q8NBP7 153-692): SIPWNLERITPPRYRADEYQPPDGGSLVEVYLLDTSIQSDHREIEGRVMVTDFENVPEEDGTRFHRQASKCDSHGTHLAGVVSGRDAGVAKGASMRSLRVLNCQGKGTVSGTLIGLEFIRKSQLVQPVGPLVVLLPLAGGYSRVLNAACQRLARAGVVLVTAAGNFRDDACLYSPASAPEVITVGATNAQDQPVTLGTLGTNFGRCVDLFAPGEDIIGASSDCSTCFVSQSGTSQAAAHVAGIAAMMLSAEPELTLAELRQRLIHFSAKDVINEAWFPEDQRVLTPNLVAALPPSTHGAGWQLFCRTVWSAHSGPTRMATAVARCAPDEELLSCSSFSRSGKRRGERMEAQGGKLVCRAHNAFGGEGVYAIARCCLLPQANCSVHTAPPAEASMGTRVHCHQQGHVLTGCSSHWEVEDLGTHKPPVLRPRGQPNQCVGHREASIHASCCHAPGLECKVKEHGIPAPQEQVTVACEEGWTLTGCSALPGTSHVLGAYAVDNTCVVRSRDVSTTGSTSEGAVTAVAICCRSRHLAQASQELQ
endpoint: Ki

Ki in this record for COc1ccc(C[C@@H]2NC(=O)[C@H]([C@@H](C)O)NC(=O)[C@@H]3[C@@H]4CCN3C(=O)[C@H](Cc3c[nH]c5ccc(F)cc35)NC(=O)[C@H](Cc3cccc(c3)CNC(=O)CO4)NC(=O)[C@@H](C)NC(=O)[C@H](CNC(=O)CCOCCOCC[N+](C)(C)C)NC(=O)CCC(=O)NCc3ccc(cc3)CCNC(=O)[C@]3(C)CCCN3C2=O)cc1 : 4.02 nM

Sample COc1ccc(C[C@@H]2NC(=O)[C@H]([C@H](C)O)NC(=O)[C@@H]3[C@@H]4CCN3C(=O)[C@H](Cc3c[nH]c5ccc(F)cc35)NC(=O)[C@H](Cc3cccc(c3)Cn3cc(nn3)CO4)NC(=O)[C@@H](C)NC(=O)[C@H](CNC(=O)CCOCCOCC[N+](C)(C)C)NC(=O)CCC(=O)NCc3ccc(cc3)C[C@@H](C(N)=O)NC(=O)[C@]3(C)CCCN3C2=O)cc1 ; Ki observed: < 1.26 nM

Please fill in: Ki reported for COc1ccc(C[C@@H]2NC(=O)[C@H]([C@@H](C)O)NC(=O)[C@@H]3[C@@H]4CCN3C(=O)[C@H](Cc3c[nH]c5ccc(F)cc35)NC(=O)[C@H](Cc3cccc(c3)Cn3cc(nn3)CO4)NC(=O)[C@@H](C)NC(=O)[C@H](CNC(=O)CCOCCOCC[N+](C)(C)C)NC(=O)CCC(=O)NCc3ccc(cc3)CCNC(=O)[C@]3(C)CCCN3C2=O)cc1 = < 1.26 nM
